This collection of values is drawn from ChEMBL document CHEMBL1133150.

- assay_target: Neprilysin (Rattus norvegicus)
- Sequence (P07861 whole entry): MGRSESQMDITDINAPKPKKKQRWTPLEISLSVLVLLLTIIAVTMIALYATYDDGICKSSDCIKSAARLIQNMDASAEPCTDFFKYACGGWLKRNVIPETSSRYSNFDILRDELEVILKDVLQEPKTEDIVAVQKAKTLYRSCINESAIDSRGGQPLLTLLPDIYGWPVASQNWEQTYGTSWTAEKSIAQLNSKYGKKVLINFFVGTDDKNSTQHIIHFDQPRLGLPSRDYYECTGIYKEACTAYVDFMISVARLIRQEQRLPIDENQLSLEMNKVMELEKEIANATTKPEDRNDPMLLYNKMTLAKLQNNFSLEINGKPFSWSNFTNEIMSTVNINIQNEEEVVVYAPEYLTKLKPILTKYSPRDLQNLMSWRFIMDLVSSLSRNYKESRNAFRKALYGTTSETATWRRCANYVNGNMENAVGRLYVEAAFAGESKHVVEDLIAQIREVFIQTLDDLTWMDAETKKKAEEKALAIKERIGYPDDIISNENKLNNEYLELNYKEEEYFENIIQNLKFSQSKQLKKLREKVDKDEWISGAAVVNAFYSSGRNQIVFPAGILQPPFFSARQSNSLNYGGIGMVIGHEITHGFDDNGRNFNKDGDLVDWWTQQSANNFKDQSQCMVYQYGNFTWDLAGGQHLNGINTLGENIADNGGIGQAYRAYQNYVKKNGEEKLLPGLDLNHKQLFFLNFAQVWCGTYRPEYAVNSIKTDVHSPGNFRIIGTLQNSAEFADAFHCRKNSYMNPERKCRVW
pIC50: −log10 of the molar value.
Rule: 1 for pIC50 not less than 4, 0 for anything less.

INSERT INTO measurements (compound, category_label) VALUES
  ('CC(C)C[C@H](NC(=O)C(Cc1ccccc1)CN(O)C(N)=O)C(=O)N[C@@H](Cc1ccccc1)C(=O)O (stereo partly specified)', 0),
  ('CS(=O)(=O)N[C@@H](CCCCN)C(=O)NC[C@H](CC1(C(=O)N[C@@H](Cc2ccc(O)cc2)C(=O)O)CCCC1)C(=O)O', 1),
  ('O=CN(O)C[C@@H](Cc1ccccc1)C(=O)N[C@H]1CCc2ccccc2N(CC(=O)O)C1=O', 1),
  ('CC(=O)N(O)CC(Cc1ccccc1)C(=O)N[C@@H](CC(C)C)C(=O)N[C@@H](Cc1ccccc1)C(=O)O (stereo partly specified)', 0);

q: Hello, I need to know if CC1(C)CCC[C@H](NC(=O)[C@H](Cc2ccccc2)CN(O)C=O)C(=O)N1CC(=O)O has measured pIC50 not below 4. Thanks!
a: 1
